Below is a list of entries, each paired with its recorded GI50 value.
# Test system: UACC-257 melanoma
# ASSAY NAME: NCI tumour cell line growth inhibition, 48 h
PROPERTY MEASURED: GI50

# MOLECULE, VALUE MEASURED
rows = [
    ("N#C/C(=C\\c1ccc(O)c(O)c1)C(=O)NCc1cccc(C(F)(F)F)c1", "12200 nM"),
    ("O=C(NNC1=NS(=O)(=O)c2ccccc2N1c1ccccc1)c1cnccn1", "> 100000 nM"),
    ("O=C(O)C1CC[N-]CC1.O=C(O)C1CC[N-]CC1.[NH2-].[NH2-].[Pt+4]", "> 100000 nM"),
    ("Cc1c(Br)c(Br)c2c3c1nc(N1CCNCC1)n3CCC2", "2130 nM"),
    ("Oc1ccc(/C=N/NC(=S)Nc2ccccc2)nc1", "2180 nM"),
    ("COc1cc(C2C=C(C)N=C3SC=C(C)N32)cc(OC)c1OC (stereo not given)", "1770 nM"),
    ("COc1cc(C(=O)/C=C/c2cccnc2Nc2ccc(Cl)cc2)cc(OC)c1OC", "1500 nM"),
    ("CN(C)C/C=C/C(=O)Nc1ccc(C(=O)Nc2cccc(Nc3ncc(Cl)c(-c4c[nH]c5ccccc45)n3)c2)cc1", "21.6 nM"),
    ("C/C=C(/C)C(=O)OC1C=C(CO)C(=O)C(OC(=O)C2(C)OC2C)C1C(C)C (stereo not given)", "1370 nM"),
    ("COc1cc2c3c(n(CCCNCCCCN)c(=O)c2cc1OC)-c1cc2c(cc1C3=O)OCO2", "16800 nM"),
]
